Exercise: for every item that follows, state its recorded cell count.
# System: U2OS
# TEST DESCRIPTION: cell count relative to DMSO control (panel A, nuclei/RNA/PMG/mitochondria stain) (fraction of control); higher = more cells (less toxicity)
# CONDITION NOTES: 10 µM; treatment time: 24 h

Just so you know, measured cell count for CC[C@H]1CN2CCc3cc(OC)c(OC)cc3[C@@H]2C[C@@H]1C[C@H]1NCCc2cc(OC)c(OC)cc21 [emetine] came out at 1.05

Just so you know, measured cell count for CC(=O)O[C@H]1C(=O)[C@@]2(C)[C@H]([C@H](OC(=O)c3ccccc3)[C@]3(O)C[C@H](OC(=O)[C@H](O)[C@@H](NC(=O)c4ccccc4)c4ccccc4)C(C)=C1C3(C)C)[C@]1(OC(C)=O)CO[C@@H]1C[C@@H]2O [paclitaxel] came out at 1

Just so you know, measured cell count for CC[C@H]1/C=C/C=C/C[C@@H](C)[C@H](O)[C@@](C)(O)C(=O)[C@@H](C)[C@H](O)[C@@H](C)C(=O)[C@@H](C)[C@H](O)[C@@H](C)/C=C/C(=O)O[C@@H]2[C@H](C)[C@H](CC1)O[C@]1(CC[C@H](C)[C@H](C[C@@H](C)O)O1)[C@H]2C [oligomycin-a] came out at 0.925

Just so you know, measured cell count for CC(=O)N[C@@H](CC(C)C)C(=O)N[C@@H](CC(C)C)C(=O)N[C@H](C=O)CCCN=C(N)N [leupeptin] came out at 1.03

Just so you know, measured cell count for Cc1[nH]c2ccccc2c1CCNC(=O)c1cccs1 [CK-636] came out at 0.961

Just so you know, measured cell count for CCc1c2c(nc3ccc(OC(=O)N4CCC(N5CCCCC5)CC4)cc13)-c1cc3c(c(=O)n1C2)COC(=O)[C@]3(O)CC [irinotecan] came out at 0.592

---

# Test system: U2OS-LMNB1-TUBA1B-ACTB
# TEST DESCRIPTION: cell count relative to DMSO control (panel C1, DRAQ5/ER stain) (fraction of control); higher = more cells (less toxicity)
# CONDITION NOTES: 20 µM; treatment time: 24 h
Exercise: for every item that follows, state its recorded cell count.
Response field accepts a number only; no unit should be typed.

Just so you know, measured cell count for O=C(Oc1cc(S(=O)(=O)c2ccccc2)ccc1[N+](=O)[O-])c1ccc(Cl)cc1 came out at 0.989

Just so you know, measured cell count for Cc1[nH]c2ccccc2c1CCNC(=O)c1cccs1 came out at 0.858

Just so you know, measured cell count for COc1ccc(C[C@H]2NC[C@H](O)[C@H]2OC(C)=O)cc1 came out at 0.166

Just so you know, measured cell count for Cc1c(Cl)cccc1Nc1ccccc1C(=O)O came out at 1.03

Just so you know, measured cell count for CO[C@@]12[C@H](COC(N)=O)C3=C(C(=O)C(C)=C(N)C3=O)N1C[C@@H]1N[C@@H]12 came out at 0.38

Just so you know, measured cell count for CNCCCN1c2ccccc2CCc2ccccc21 came out at 0.333

Just so you know, measured cell count for Cc1c(N)nc([C@H](CC(N)=O)NC[C@H](N)C(N)=O)nc1C(=O)N[C@H](C(=O)N[C@H](C)[C@@H](O)[C@H](C)C(=O)N[C@H](C(=O)NCCc1nc(-c2nc(C(=O)NCCC[S+](C)C)cs2)cs1)[C@@H](C)O)[C@@H](O[C@@H]1O[C@@H](CO)[C@@H](O)[C@H](O)[C@@H]1O[C@H]1O[C@H](CO)[C@@H](O)[C@H](OC(N)=O)[C@@H]1O)c1c[nH]cn1 came out at 0.887

Just so you know, measured cell count for O=NN(CCCl)C(=O)NC1CCCCC1 came out at 0.73

Just so you know, measured cell count for CC(C)n1c(/C=C/C(O)CC(O)CC(=O)O)c(-c2ccc(F)cc2)c2ccccc21 (stereo not drawn) came out at 0.849

Just so you know, measured cell count for CCCCCCCCCCCCCCCCCCOP(=O)([O-])OC1CC[N+](C)(C)CC1 came out at 0.363

Just so you know, measured cell count for COc1cc(-n2c(=S)[nH]c3ccccc3c2=O)c(Cl)cc1Cl came out at 1.09

Just so you know, measured cell count for CCCC[C@@H](C=O)NC(=O)[C@H](CC(C)C)NC(=O)[C@H](CC(C)C)NC(C)=O came out at 0.0712

Just so you know, measured cell count for Nc1c2ccccc2nc2ccccc12 came out at 0.0515

Just so you know, measured cell count for Nc1ccn([C@@H]2O[C@H](CO)[C@@H](O)C2(F)F)c(=O)n1 came out at 0.388

Just so you know, measured cell count for O=C(CCCN1CCC(O)(c2ccc(Cl)cc2)CC1)c1ccc(F)cc1 came out at 1.05

Just so you know, measured cell count for CC(=O)O[C@H]1C(=O)[C@@]2(C)[C@H]([C@H](OC(=O)c3ccccc3)[C@]3(O)C[C@H](OC(=O)[C@H](O)[C@@H](NC(=O)c4ccccc4)c4ccccc4)C(C)=C1C3(C)C)[C@]1(OC(C)=O)CO[C@@H]1C[C@@H]2O came out at 0.992

Just so you know, measured cell count for CN1CCC(c2c(O)cc(O)c3c(=O)cc(-c4ccccc4Cl)oc23)[C@@H](O)C1 (stereo partly drawn) came out at 0.257

Just so you know, measured cell count for Fc1cc(F)c2c(c1)[C@H]1C=CC[C@H]1C(c1cccnc1)N2 (stereo partly drawn) [golgicide-A] came out at 0.778

Just so you know, measured cell count for O=C(/C=C/c1cccc(S(=O)(=O)Nc2ccccc2)c1)NO came out at 0.397

Just so you know, measured cell count for CC(=O)N[C@@H](CC(C)C)C(=O)N[C@@H](CC(C)C)C(=O)N[C@H](C=O)CCCN=C(N)N came out at 1.01

Just so you know, measured cell count for OC(CS)C(O)CS (stereo not drawn) came out at 0.457

Just so you know, measured cell count for COc1ccc2cc1Oc1ccc(cc1)C[C@H]1c3cc(c(OC)cc3CCN1C)Oc1c(OC)c(OC)cc3c1[C@H](C2)N(C)CC3 came out at 0.639

Just so you know, measured cell count for Cc1c2oc3c(C)ccc(C(=O)N[C@@H]4C(=O)N[C@H](C(C)C)C(=O)N5CCC[C@H]5C(=O)N(C)CC(=O)N(C)[C@@H](C(C)C)C(=O)O[C@@H]4C)c3nc-2c(C(=O)N[C@@H]2C(=O)N[C@H](C(C)C)C(=O)N3CCC[C@H]3C(=O)N(C)CC(=O)N(C)[C@@H](C(C)C)C(=O)O[C@@H]2C)c(N)c1=O came out at 0.418

Just so you know, measured cell count for NCCCCC(N)C(=O)NC(CCCCN)C(=O)NC(Cc1c[nH]c2ccccc12)C(=O)NC(Cc1c[nH]c2ccccc12)C(=O)NC(CCCCN)C(=O)NC(CCCCN)C(=O)NC(Cc1c[nH]c2ccccc12)C(=O)NC(C(=O)NC(CCCCN)C(N)=O)C(c1ccccc1)c1ccccc1 (stereo not drawn) came out at 0.0329

Just so you know, measured cell count for CO[C@H]1C[C@@H]2CC[C@@H](C)[C@@](O)(O2)C(=O)C(=O)N2CCCC[C@H]2C(=O)O[C@H]([C@H](C)C[C@@H]2CC[C@@H](O)[C@H](OC)C2)CC(=O)[C@H](C)/C=C(\C)[C@@H](O)[C@@H](OC)C(=O)[C@H](C)C[C@H](C)/C=C/C=C/C=C/1C came out at 0.745

Just so you know, measured cell count for N#CC(C#N)=NNc1ccc(OC(F)(F)F)cc1 came out at 0.651

Just so you know, measured cell count for O=C(CCCCCCC(=O)Nc1ccccc1)NO came out at 0.208

Just so you know, measured cell count for O=C(O)CCCCC(CCSCc1ccccc1)SCc1ccccc1 (stereo not drawn) came out at 1.14
